Data credit: patent US20190135908A1

As shown below, each of these binders has a reported kon value.
EXPERIMENTAL SYSTEM: T1, Mouse His-GDF15: HIS-tagged mouse GDF15 (mouse, UniProt Q9Z0J7 189-303)
T1 construct: not shown: His tag
T1 sequence (looked up): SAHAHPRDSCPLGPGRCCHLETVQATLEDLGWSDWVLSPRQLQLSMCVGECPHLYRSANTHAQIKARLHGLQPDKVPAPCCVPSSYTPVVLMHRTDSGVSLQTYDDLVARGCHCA
ASSAY TEXT: Biacore SPR, IgG captured via anti-human Fc, GDF15 in flow

Lookup: So what does the record say about kon for ABGDF15-B (antibody, human IgG1, lambda, V domains shown, captured through anti-human Fc in the Biacore assay) VH: QVQLVQSGAEVKKPGSSVKVSCKASGGTFRSYAVSWVRQAPGQGLEWMGGIIPIFGTANYAQKFQGRVTITADESTSTAYMELSSLRSEDTAVYYCARGPIIMGYQFGLFDHWGQGTLVTVSS VL: SYELTQPLSVSVALGQTARITCSGDNIGSHIVSWYQQKPGQAPVLVIYDKSNRPSGIPERFSGSNSGNTATLTISRAQAGDEADYYCQTWDSIGSVVFGGGTKLTVLG ?
Found: 2.64e+06 M⁻¹ s⁻¹

Lookup: What do you have for ABGDF15-C (antibody, human IgG1, lambda, V domains shown, captured through anti-human Fc in the Biacore assay) VH: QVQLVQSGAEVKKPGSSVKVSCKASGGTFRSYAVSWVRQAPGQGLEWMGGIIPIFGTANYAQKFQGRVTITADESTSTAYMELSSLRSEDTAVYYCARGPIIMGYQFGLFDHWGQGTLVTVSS VL: SYELTQPPSVSVSPGQTASITCSGDNIGSHIVSWYQQKPGQSPVLVIYDKSNRPSGIPERFSGSNSGNTATLTISGTQAMDEADYYCQTWDSIGSVVFGGGTKLTVLG ?
Found: 4.37e+06 M⁻¹ s⁻¹

Lookup: What do you have for ABGDF15-F (antibody, human IgG1, lambda, V domains shown, captured through anti-human Fc in the Biacore assay) VH: EVQLVQSGAEVKKPGESLKISCKGSGYSFTSYWIGWVRQMPGKGLEWMGVIDPSGSYTIYSPSFQGQVTISADKSISTAYLQWSSLKASDTAMYYCARYGRYGTYFDYWGQGTLVTVSS VL: QSVLTQPPSVSGAPGQRVTISCSGSSSNIGVLYVNWYQQLPGTAPKLLIYSNDNRPSGVPDRFSGSKSGTSASLAITGLQAEDEADYYCQSWDSSSNYVFGGGTKLTVLG ?
Found: 6.05e+06 M⁻¹ s⁻¹

Lookup: What do you have for ABGDF15-D (antibody, human IgG1, lambda, V domains shown, captured through anti-human Fc in the Biacore assay) VH: EVQLVQSGAEVKKPGESLKISCKGSGYSFTSYWIGWVRQMPGKGLEWMGVIDPDGSYTIYSPSFQGQVTISADKSISTAYLQWSSLKASDTAMYYCARYGRYGTYFDYWGQGTLVTVSS VL: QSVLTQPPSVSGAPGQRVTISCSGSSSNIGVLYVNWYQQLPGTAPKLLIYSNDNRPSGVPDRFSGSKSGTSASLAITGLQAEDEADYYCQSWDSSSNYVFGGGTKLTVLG ?
Found: 1.11e+07 M⁻¹ s⁻¹
